- procedureDetails: High-throughput drug toxicity screening in the BPDCN cell line Gen2.2 (AID 1224824);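 note: cells exposed to compounds for 48 h before reading; 100% = DMSO and 0% = bortezomib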
- appliedConditions: Gen2.2 BPDCN cells; at 45.8 µM (top of the series) unless noted
measuredEndpoint: cell viability, % of control (lower = more cytotoxic)
Just so you know, I need the unit written after the number.

COc1ccc(C2Sc3ccccc3N(CCN(C)C)C(=O)C2OC(C)=O)cc1 (configuration not stated) | 150%
CC1(C)Cc2c(sc(NC(=S)NC(=O)c3ccccc3)c2C(=O)O)CO1 | 100%
CO[C@H]1C[C@@H]2CC[C@@H](C)[C@@](O)(O2)C(=O)C(=O)N2CCCC[C@@H]2C(=O)O[C@H]([C@H](C)C[C@@H]2CC[C@H](OC(=O)C(C)(CO)CO)[C@H](OC)C2)CC(=O)[C@H](C)C=C(C)[C@@H](O)[C@@H](OC)C(=O)[C@H](C)C[C@H](C)C=CC=CC=C1C | 6.71%

Find the recorded cell viability, % of control (lower = more cytotoxic) belonging to `Cc1c(O)cccc1C(=O)N[C@@H](CSc1ccccc1)[C@H](O)CN1C[C@H]2CCCC[C@@H]2C[C@@H]1C(=O)NC(C)(C)C` and report it. 66.8%

I have this compound here, `NS(=O)(=O)c1ccc(NC2=CC(=O)c3ccccc3C2=O)cc1` , and I need its recorded cell viability, % of control (lower = more cytotoxic). 162%

// lookup cell viability, % of control (lower = more cytotoxic) for CCOC1OC(=O)C[C@H]1NC(=O)[C@@H]1CCCN1C(=O)[C@@H](NC(=O)c1ccc(N)c(Cl)c1)C(C)(C)C (some centres not stated) 49.8%

What does the record list as cell viability, % of control (lower = more cytotoxic) for `NC(=O)c1ccc2nc(-c3ccc(Oc4ccc(Cl)cc4)cc3)[nH]c2c1` ? 59.5%

Recorded cell viability, % of control (lower = more cytotoxic) for `O=C(Nc1cccc(Br)c1)c1cccc(S(=O)(=O)N2CCCCCC2)c1` , please? 296%

Given `O=c1cc(-c2ccccc2)oc2cc(O)cc(O)c12` , state its recorded cell viability, % of control (lower = more cytotoxic). 45.9%

Name the reported cell viability, % of control (lower = more cytotoxic) value associated with the compound CNC1CCC(N(Cc2cccc(-c3ccncc3)c2)C(=O)c2sc3c(F)ccc(F)c3c2Cl)CC1 (configuration not stated) 0.6%

# get_value(readout='cell viability, % of control (lower = more cytotoxic)', item= `Cc1ccc([C@@H]2O[C@H](CO)[C@@H](O)[C@H](O)[C@@H]2O)cc1Cc1ccc(-c2ccc(F)cc2)s1` ) 126%

Endpoint output: cell viability, % of control (lower = more cytotoxic) of `CCS(=O)(=O)N1CC(CC#N)(n2cc(-c3ncnc4[nH]ccc34)cn2)C1` . Value? 134%

Would you mind telling me what cell viability, % of control (lower = more cytotoxic) value was observed for `CC1(C)CCC[C@@]2(C)[C@@H]1CC[C@@]1(C)OC(=O)C[C@H]21` ? 95%

I am curious: what cell viability, % of control (lower = more cytotoxic) value has been reported for `CO[C@H]1C=CC=C(C)C(=O)NC2=CC(=O)C(NCCN(C)C)=C(C[C@@H](C)C[C@H](OC)[C@@H](O)[C@@H](C)C=C(C)[C@@H]1OC(N)=O)C2=O` ? 4.49%

----------
- procedureDetails: Quantitative High-Throughput drug screen in 47 multiple myeloma cell lines against the NCATS MIPE library collection: KMS12BM_JCRB cell viability assay (AID 1918971); note: nearly all actives have a fitted effect of over 35% in size
- appliedConditions: KMS12BM myeloma viability, CellTiter-Glo ATP, 48 h; series mostly up to 45.8 µM
Records with an inconclusive call do not appear. Calls of active or inactive are those of the source. Calls follow the shape of the dose curve; as a rule, active = well fitted cell-killing curve with a large enough effect; inconclusive = small, poorly fitted or top-dose-only effect, or effect the other way; inactive = no such curve, though single readings can be large or run the other way.
Return exactly one item of class 1 for active, class 0 for inactive

c1ccc2c(-c3cnn4cc(-c5ccc(N6CCNCC6)cc5)cnc34)ccnc2c1 | class 1
Cc1ccc([C@@H]2O[C@H](CO)[C@@H](O)[C@H](O)[C@@H]2O)cc1Cc1ccc(-c2ccc(F)cc2)s1 | class 0
CNC(=O)c1ccccc1Sc1ccc2c(C=Cc3ccccn3)n[nH]c2c1 | class 1
Cc1ccc(F)c(NC(=O)Nc2ccc(-c3cccc4[nH]nc(N)c34)cc2)c1 | class 1

Now look at this entry.
Each molecule tested received a call. Report the one for `Cc1[nH]c(C=C2C(=O)Nc3ccc(S(=O)(=O)Cc4c(Cl)cccc4Cl)cc32)c(C)c1C(=O)N1CCC[C@H]1CN1CCCC1` . class 1

----------
- procedureDetails: P-glycoprotein substrates identified in KB-8-5-11 adenocarcinoma cell line, qHTS therapeutic library screen (AID 1346987); note: nearly all actives have a fitted effect of over 65% in size
- appliedConditions: KB-8-5-11 (P-gp overexpressing) viability, CellTiter-Glo, 72 h; series mostly up to 44.5 µM
Records with an inconclusive call do not appear. Activity calls are given as the source filed them. The call rests on the fitted dose curve; in most records, active means well fitted inhibition curve with a large enough effect; inconclusive means small, poorly fitted or top-dose-only effect; inactive means flat fitted curve, though single readings scatter.
measuredEndpoint: outcome

Answered examples (4):
O=C(NC1CCOCC1)c1ccc(-c2cc(-c3cn[nH]c3-c3ccccn3)ccn2)cc1 | inactive
CC(C)(C)c1cc(C(=O)O)c(NC(=O)Nc2ccc3[nH]ncc3c2)s1 | inactive
CCOC(=O)C1=C(N)Oc2ccc(Br)cc2C1C(C#N)C(=O)OCC (stereo not given) | inactive
CC(C)(C)COc1ccc(-n2cc(C(=O)O)cn2)cc1C#N | inactive

Now for a further compound.
Can you share its outcome? I mean this compound: `O=C1c2c(O)cc(O)cc2O[C@H](c2cc(O)c(O)c(O)c2)[C@H]1O` inactive

----------
- procedureDetails: Cell Viability - SK-N-SH (AID 435);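 note: compound exposure lasted 40 h at 37 °C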
- appliedConditions: SK-N-SH neuroblastoma cell viability qHTS
Results filed as inconclusive are left out. Calls of active or inactive are those of the source. Calls come from the whole dose curve.
Just give me one of these, please: true (1) for active, false (0) for inactive

See these solved cases before continuing.
CN(C)CCC(c1ccccc1)c1ccccn1 (stereo not drawn) | false (0)
CCCNC(=O)NS(=O)(=O)c1ccc(Cl)cc1 | false (0)
O=C(O)Cc1cccc2ccccc12 | false (0)
CC/C(=C(\c1ccccc1)c1ccc(OCCN(C)C)cc1)c1ccccc1 | true (1)
O=c1c(O)c(-c2ccc(O)cc2)oc2cc(O)cc(O)c12 | false (0)

Hi, do you know how `O=c1c(-c2ccc(O)cc2)coc2cc(O)ccc12` came out in this test? false (0)

So what was the verdict on `CCn1cc(C(=O)O)c(=O)c2ccc(C)nc21` in this test? false (0)

Just curious, what result did `CC1=C(/C=C/C(C)=C/C=C/C(C)=C/C(=O)Nc2ccc(O)cc2)C(C)(C)CCC1` get here? true (1)

----------
- System: C33A
- procedureDetails: Primary qHTS to identify gynecologic anti-cancer compounds using libraries of approved drugs and bioactive compounds (AID 1345084); note: nearly all actives have a fitted effect of over 55% in size
- appliedConditions: Gynecologic cancer cell panel viability, ATPlite luminescence, 48 h; series mostly up to 57.5 µM
Inconclusive results are not listed. The source made the active and inactive calls. Calls follow the shape of the dose curve; as a rule, active = well fitted cell-killing curve with a large enough effect; inconclusive = small, poorly fitted or top-dose-only effect, or effect the other way; inactive = flat fitted curve, though single readings scatter.
Pick one: Y (active), N (inactive)

Completed entries (count: 8):
CCCCC1C(=O)N(c2ccccc2)N(c2ccccc2)C1=O | N
CC/C(=C(\c1ccccc1)c1ccc(OCCN(C)C)cc1)c1ccccc1 | N
O=C(O)Cc1cccc2ccccc12 | N
CC(C)(C)NC(=O)Nc1cccc(Nc2ncc(F)c(NC(C)(C)CO)n2)c1 | N
CC(=O)O[C@]1(C(C)=O)CC[C@H]2[C@@H]3C=C(Cl)C4=CC(=O)[C@@H]5C[C@@H]5[C@]4(C)[C@H]3CC[C@@]21C | N
NC(=O)c1cccc(-c2cc(Nc3ccc(OC(F)(F)F)cc3)ncn2)c1 | N
COc1cc2ncnc(Nc3ccc(F)c(Cl)c3)c2cc1OCCCN1CCOCC1 | N
CN(C)Cc1ccc(-c2nc3cccc4c3n2CCNC4=O)cc1 | N

Called result for `CC(C)(C)Cn1c(N)nc2ccc(-c3[nH]c(C(C)(C)C)nc3-c3ccc(F)cc3)nc21` N

For `CN(C)C1CCN(C(=O)c2ccc(NC(=O)Nc3nc(N4CCOCC4)nc(N4CCOCC4)n3)cc2)CC1` , which call appears in the assay record? Y

----------
- procedureDetails: qHTS drug screen for cell cycle checkpoint inhibitors in PARPi-resistant BRCA-mutant ovarian cancer cell lines. (AID 1963452)
- appliedConditions: PEO1/OlaR viability, CellTiter-Glo luminescence, 96 h; measured here: PEO1 parental Z-AUC; stronger effect = lower value
- Source text: Women's Malignancies Branch, Center for Cancer Research (CCR), National Cancer Institute (NCI), National Institutes of Health (NIH), Bethesda, MD Poly (ADP-ribose) polymerase inhibitors (PARPis) have changed the treatment paradigm in breast cancer gene (BRCA) - mutant high-grade serous ovarian carcinoma (HGSC). […] 6; Detection; Luminescence, PHERAstar (BMG Labtech) plate reader. […] 6. Luminescence readings were taken using PHERAstar (BMG Labtech). […]
measuredEndpoint: Z-AUC
Just the number, please, no unit after it.

Would you mind telling me what Z-AUC value was observed for COc1ccc(C2CC(c3ccccc3)=NN2c2ccc(S(N)(=O)=O)cc2)cc1 (centres undefined) ? -0.864

State the recorded Z-AUC for this entry: `CCS(=O)(=O)N1CC(CC#N)(n2cc(-c3ncnc4[nH]ccc34)cn2)C1` 0.902

Which Z-AUC is reported for this compound? `Cc1ccc(F)c(NC(=O)Nc2ccc(-c3cccc4[nH]nc(N)c34)cc2)c1` 1.09

Entry `O=C(Nc1c(Cl)cncc1Cl)c1ccc(OC(F)F)c(OCC2CC2)c1` has what Z-AUC? 0.551

Record request: Z-AUC value, item `COC(=O)[C@@H]1[C@H]2C[C@H]3c4[nH]c5ccccc5c4CCN3C[C@@H]2CC[C@@H]1O` 0.498

Find the recorded Z-AUC belonging to `O=C(Nc1ccccc1-c1cn2c(CN3CCNCC3)csc2n1)c1cnc2ccccc2n1` and report it. 0.118
